Reference source: BindingDB's records for doi:10.7270/Q2SN07C4

Molecular target: UniProt P08485
Sequence (P08485 as listed by the source): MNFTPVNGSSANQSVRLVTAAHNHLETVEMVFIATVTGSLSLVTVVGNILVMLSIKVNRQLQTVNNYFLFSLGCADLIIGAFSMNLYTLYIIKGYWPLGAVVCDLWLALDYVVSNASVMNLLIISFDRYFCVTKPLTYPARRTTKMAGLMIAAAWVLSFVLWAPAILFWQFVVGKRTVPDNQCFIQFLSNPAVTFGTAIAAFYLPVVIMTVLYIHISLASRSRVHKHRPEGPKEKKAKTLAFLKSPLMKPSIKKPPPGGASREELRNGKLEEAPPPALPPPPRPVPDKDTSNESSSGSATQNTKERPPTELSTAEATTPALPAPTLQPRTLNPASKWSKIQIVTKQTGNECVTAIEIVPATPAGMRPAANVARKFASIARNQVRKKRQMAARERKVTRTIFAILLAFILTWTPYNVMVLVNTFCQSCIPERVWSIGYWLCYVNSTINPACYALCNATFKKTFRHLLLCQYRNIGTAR
Assay: effects on NMS binding at M4, late-stage follow-up, mechanism study for M4 PAM project, biochemical, NMS competition, rat M4 (AID 1939)
Recorded Endpoint: EC50

Request: I am curious: what EC50 value has been reported for "Cc1cc(C)c2c(N)c(C(=O)NCc3ccc4c(c3)OCO4)sc2n1" ?
Response: < 1420 nM
